# target_entity: Procathepsin L (Homo sapiens, UniProt P07711)
# assay: Inhibition of human cathepsin L assessed as second order rate constant using Cbz-Phe-Arg-AMC as substrate
# Sequence (P07711 114-333 limits assumed): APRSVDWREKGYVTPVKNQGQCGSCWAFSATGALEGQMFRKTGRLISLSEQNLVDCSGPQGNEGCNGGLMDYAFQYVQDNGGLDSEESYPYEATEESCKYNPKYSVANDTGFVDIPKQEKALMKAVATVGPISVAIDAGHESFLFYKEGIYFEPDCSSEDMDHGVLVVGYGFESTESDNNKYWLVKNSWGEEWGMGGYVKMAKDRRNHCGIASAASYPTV
Response field label: string, one of Y (K strictly below 10000 M⁻¹ s⁻¹) or N.

Say whether its K is strictly beneath 10000 M⁻¹ s⁻¹. Entry: `CCOC(=O)/C=C/[C@@H](O)[C@H](CCc1ccccc1)NC(=O)[C@H](Cc1ccccc1)NC(=O)OCc1ccccc1`
Y

Does `O=C(O)/C=C/[C@@H](O)[C@H](CCc1ccccc1)NC(=O)[C@H](Cc1ccccc1)NC(=O)OCc1ccccc1` have K strictly under 10000 M⁻¹ s⁻¹?
Y

Criterion: K strictly below 10000 M⁻¹ s⁻¹. Is it met by `CCOC(=O)/C=C/C(=O)[C@H](CCc1ccccc1)NC(=O)[C@H](CC(C)C)NC(=O)OCc1ccccc1` ?
N

# check: K < 10000 M⁻¹ s⁻¹ for `CCOC(=O)/C=C/[C@H](O)[C@H](CCc1ccccc1)NC(=O)[C@H](Cc1ccccc1)NC(=O)OCc1ccccc1`
Y

Report whether reported K is lower than 10000 M⁻¹ s⁻¹ (strictly) for `CCOC(=O)/C=C/C(=O)[C@H](CC(C)C)NC(=O)[C@H](Cc1ccccc1)NC(=O)OCc1ccccc1`
N

Below 10000 M⁻¹ s⁻¹ on K? Entry `CCOC(=O)/C=C/C(=O)[C@H](CCc1ccccc1)NC(=O)[C@H](CC(C)C)NC(=O)N1CCOCC1`
N

Does the reported K of `CCOC(=O)/C=C/[C@@H](O)[C@H](C)NC(=O)[C@H](Cc1ccccc1)NC(=O)OCc1ccccc1` stay below 10000 M⁻¹ s⁻¹?
Y

* * *

pIC50, Procathepsin L (Homo sapiens, UniProt P07711): measured values
Hey, just a heads up that pIC50 is the negative log base 10 of the concentration in molar.

Could you tell me which pIC50 is on file for `CCOC(=O)/C=C/[C@H](O)[C@H](CCc1ccccc1)NC(=O)[C@H](Cc1ccccc1)NC(=O)OCc1ccccc1` ?
4.33

What value of pIC50 has been reported for the following molecule? `CCOC(=O)/C=C/C(=O)[C@H](CCc1ccccc1)NC(=O)[C@H](CC(C)C)NC(=O)N1CCOCC1`
6.68

Request the reported pIC50 associated with `CCOC(=O)/C=C/C(=O)[C@H](C)NC(=O)[C@H](Cc1ccccc1)NC(=O)OCc1ccccc1`
7.10

# query: pIC50 of entry `CCOC(=O)/C=C/C(=O)[C@H](CC(C)C)NC(=O)[C@H](CC(C)C)NC(=O)N1CCOCC1`
7.05

Value lookup for pIC50; key = `CCOC(=O)/C=C/C=C/C(=O)[C@H](CCc1ccccc1)NC(=O)[C@H](Cc1ccccc1)NC(=O)N1CCOCC1`
5.83

So what's the measured pIC50 for this one? `CCOC(=O)/C=C/C(=O)[C@H](CCc1ccccc1)NC(=O)[C@H](Cc1ccccc1)NC(=O)N1CCOCC1`
6.74

// pIC50 lookup, key: `CCOC(=O)/C=C/C(=O)[C@@H](CC(C)C)NC(=O)[C@H](Cc1ccccc1)NC(=O)OCc1ccccc1`
8.00

State the recorded pIC50 for this entry: `CCOC(=O)/C=C/C(=O)[C@H](CC(C)C)NC(=O)[C@H](Cc1ccccc1)NC(=O)OCc1ccccc1`
8.00

Suppose we examine the molecule `CCOC(=O)/C=C/C(=O)[C@H](CCc1ccccc1)NC(=O)[C@H](CC(C)C)NC(=O)OCc1ccccc1` ; what pIC50 value has been reported?
6.59
